Below, each entry is listed alongside its reported Herbicidal action against [%] POLCO.
Test system: POLCO
assayNotes: Post-emergence herbicidal action against POLCO
Format: in vivo, Polygonum convolvulus
conditionsUsed: application rate 80 g/ha, rated visually about 3 weeks after treatment
Kindly answer with a numeric value in %, unit omitted.

Known results for compounds:
CC1(C(=O)NC2CC=C(C(=O)NS(C)(=O)=O)C2)CC(c2cccc(F)c2)=NO1 (mixture of isomers) [IV-07]
80
CCOC(=O)C1C=CC(NC(=O)C2(C(F)(F)F)CC(c3cc(F)cc(F)c3)=NO2)C1 (mixture of isomers) [Example I-058]
90
C=CC1(C(=O)NC2C=CC(C(=O)OCCCl)C2)CC(c2cc(F)cc(F)c2)=NO1 (mixture of isomers) [Example I-061]
90

So for CC(C)(C)OC(=O)[C@@H]1C=C[C@H](NC(=O)C2(C)CC(c3cccc(C#N)c3)=NO2)C1 (some centres unmarked) [Example I-095] , the logged Herbicidal action against [%] POLCO turned out to be 90

Looking up CC1(C(=O)NC2C=CC(C(=O)OCCCl)C2)CC(c2cccc(C#N)c2)=NO1 (mixture of isomers) [Example I-079] , I see its Herbicidal action against [%] POLCO listed as 90

Value of Herbicidal action against [%] POLCO reported for the compound COC(=O)C(NC(=O)C1C=CC(NC(=O)C2(C(F)(F)F)CC(c3cc(F)cc(F)c3)=NO2)C1)C(C)C (mixture of isomers) [II-37] is 100

Item: CCOCCOC(=O)[C@@H]1C=C[C@H](NC(=O)[C@@]2(C(F)(F)F)CC(c3cc(F)cc(F)c3)=NO2)C1 [Example I-077] | Herbicidal action against [%] POLCO: 80

---

Test system: POLCO
assayNotes: Post-emergence herbicidal action against POLCO
Assay type: in vivo, Polygonum convolvulus
conditionsUsed: application rate 80 g/ha, rated visually about 3 weeks after treatment
Herbicidal action against [%] POLCO: recorded values
Expressed in %, but write only the number.

Here is how some compounds turned out for Herbicidal action against [%] POLCO.
CCOC(=O)[C@@H]1C=C[C@H](NC(=O)C2(C(F)(F)F)CC(c3cc(C)cc(F)c3)=NO2)C1 (stereo partly shown)
100
C=CC1(C(=O)NC2C=CC(C(=O)NC(C(=O)OC)C(C)C)C2)CC(c2cc(F)cc(F)c2)=NO1 (mixture of isomers) [II-25]
80

Value of Herbicidal action against [%] POLCO reported for the compound COC(=O)C1C=CC(NC(=O)C2(C(F)(F)F)CC(c3cc(C)cc(C)c3)=NO2)C1 (mixture of isomers) is 90

The recorded Herbicidal action against [%] POLCO for entry C=CC1(C(=O)N[C@H]2C=C[C@H](C(=O)N3CCCCO3)C2)CC(c2cc(F)cc(F)c2)=NO1 (stereo partly shown) equals 80

---

Recorded Herbicidal action against [%] POLCO values for a group of compounds are listed next.
Test system: POLCO
assayNotes: Post-emergence herbicidal action against POLCO
Format: in vivo, Polygonum convolvulus
conditionsUsed: application rate 80 g/ha, rated visually about 3 weeks after treatment

Worked examples follow.
CCOC(=O)C1C=CC(NC(=O)C2(C(F)(F)F)CC(c3cc(Cl)cc(Cl)c3)=NO2)C1 (mixture of isomers)
80%
C=CC1(C(=O)NC2C=CC(C(=O)NS(=O)(=O)CCC)C2)CC(c2cc(F)cc(F)c2)=NO1 (mixture of isomers)
90%
COC(=O)C1C=CC(NC(=O)C2(C)CC(c3cc(F)cc(C#N)c3)=NO2)C1 (mixture of isomers)
90%
COCCOC(=O)C1C=CC(NC(=O)C2(C)CC(c3cc(F)cc(C#N)c3)=NO2)C1 (mixture of isomers)
90%

// Herbicidal action against [%] POLCO lookup, compound = C=CC1(C(=O)N[C@H]2CC=C(C(=O)OC)C2)CC(c2cc(F)cc(F)c2)=NO1 (stereo partly shown) , result: 80%

# Herbicidal action against [%] POLCO (compound: CCOC(=O)[C@@H]1C=C[C@H](NC(=O)C2(C(F)(F)F)CC(c3cc(C)cc(Cl)c3)=NO2)C1 (stereo partly shown) ) is 100%

Memo: C=CC1(C(=O)N[C@H]2CC=C(C(=O)OC(C)C)C2)CC(c2cc(F)cc(F)c2)=NO1 (stereo partly shown) , reported Herbicidal action against [%] POLCO: 80%

---

Test system: ECHCG
assayNotes: Post-emergence herbicidal action against ECHCG
Type: in vivo, Echinochloa crus-galli
conditionsUsed: application rate 80 g/ha, rated visually after about 3 weeks
measuredQuantity: Herbicidal action against [%] ECHCG (%)
Give just the number in %; leave the unit off.

CC(C)OC(=O)C1C=CC(NC(=O)C2(C(F)(F)F)CC(c3cc(F)cc(F)c3)=NO2)C1 (mixture of isomers)
90

Please fill in: Herbicidal action against [%] ECHCG reported for C=CC1(C(=O)N[C@H]2CC=C(C(=O)O)C2)CC(c2cc(F)cc(F)c2)=NO1 (stereo partly shown) = 90

So for O=C(C1C=CC(NC(=O)C2(C(F)(F)F)CC(c3cc(F)cc(F)c3)=NO2)C1)N1CCCCO1 (mixture of isomers) , the logged Herbicidal action against [%] ECHCG turned out to be 90

For CONC(=O)[C@@H]1C=C[C@H](NC(=O)C2(C)CC(c3cc(F)cc(F)c3)=NO2)C1 (stereo partly shown) the compound record lists Herbicidal action against [%] ECHCG as 80

Herbicidal action against [%] ECHCG measured on COC(=O)[C@@H]1C=C[C@H](NC(=O)C2(OC)CC(c3cc(F)cc(F)c3)=NO2)C1 (stereo partly shown) = 80

GET /value?item= O=C(OCCCl)C1C=CC(NC(=O)C2(C(F)(F)F)CC(c3cc(F)cc(F)c3)=NO2)C1 (mixture of isomers) &field=Herbicidal action against [%] ECHCG returns 90

For CC1(C(=O)NC2C=CC(C(=O)O)C2)CC(c2cccc(C#N)c2)=NO1 (mixture of isomers) the compound record lists Herbicidal action against [%] ECHCG as 90

---

Test system: VERPE
assayNotes: Pre-emergence herbicidal action against VERPE
Format: in vivo, Veronica persica
conditionsUsed: application rate 80 g/ha
measuredQuantity: Herbicidal action against [%] VERPE
Lab note: write values as number then unit, every time.

Study these solved cases before continuing.
COC(=O)C1=CC[C@H](NC(=O)C2(C)CC(c3cccc(F)c3)=NO2)C1 (stereo partly drawn)
90%
CC1(C(=O)N[C@H]2C=C[C@@H](C(=O)N3CCCO3)C2)CC(c2cc(F)cc(F)c2)=NO1 (stereo partly drawn)
90%

Value of measured Herbicidal action against [%] VERPE for the entry C=CC1(C(=O)NC2C=CC(C(=O)OCC)C2)CC(c2cc(F)cc(F)c2)=NO1 (stereo not drawn) : 90%

The molecule CC1(C(=O)NC2C=CC(C(=O)N3CCCCO3)C2)CC(c2cc(F)cc(F)c2)=NO1 (mixture of isomers) showed Herbicidal action against [%] VERPE equal to 100%

Recorded Herbicidal action against [%] VERPE (molecule CN(C)C(=O)C1=CCC(NC(=O)C2(C)CC(c3cccc(F)c3)=NO2)C1 (mixture of isomers) ): 90%

Reported Herbicidal action against [%] VERPE for COC(=O)C1=CC[C@@H](NC(=O)C2(C)CC(c3cccc(F)c3)=NO2)C1 (mixture of isomers) was 80%

---

Listed below: Herbicidal action against [%] PHBPU values for each entry.
Test system: PHBPU
assayNotes: Post-emergence herbicidal action against PHBPU
Assay type: in vivo, Pharbitis purpurea
conditionsUsed: application rate 80 g/ha, rated visually about 3 weeks after treatment
Kindly provide the numeric value in % only, without the unit symbol.

# annotated cases, reported Herbicidal action against [%] PHBPU shown
CCOCCOC(=O)[C@@H]1C=C[C@H](NC(=O)[C@@]2(C)CC(c3cc(F)cc(F)c3)=NO2)C1
80
O=C(OCCCl)C1C=CC(NC(=O)C2(C(F)(F)F)CC(c3cccc(Cl)c3)=NO2)C1 (mixture of isomers)
80
O=C(OCc1ccccc1)C1C=CC(NC(=O)C2(C(F)(F)F)CC(c3cc(F)cc(F)c3)=NO2)C1 (mixture of isomers)
80

The recorded Herbicidal action against [%] PHBPU with PHBPU for CCOCCOC(=O)[C@@H]1C=C[C@H](NC(=O)[C@@]2(C(F)(F)F)CC(c3cc(F)cc(F)c3)=NO2)C1 was 80

For the compound COC(=O)C(NC(=O)C1C=CC(NC(=O)C2(C)CC(c3cc(F)cc(F)c3)=NO2)C1)C(C)C (mixture of isomers) , the measured Herbicidal action against [%] PHBPU on PHBPU was 90

Fill in: PHBPU Herbicidal action against [%] PHBPU for CC(C)OC(=O)C1C=CC(NC(=O)C2(C(F)(F)F)CC(c3cc(F)cc(F)c3)=NO2)C1 (mixture of isomers) = 80

---

Recorded Herbicidal action against [%] POLCO for the following molecules
Tested on: POLCO
assayNotes: Post-emergence herbicidal action against POLCO
Format: in vivo, Polygonum convolvulus
conditionsUsed: application rate 80 g/ha, rated visually about 3 weeks after treatment
Write down the numeric answer in % and omit the unit.

Example results:
CC1(C(=O)NC2C=CC(C(=O)O)C2)CC(c2cccc(C#N)c2)=NO1 (mixture of isomers)
90
COC(=O)[C@@H]1C=C[C@H](NC(=O)C2(C(F)(F)F)CC(c3cc(F)cc(C#N)c3)=NO2)C1 (single isomer, unassigned) [Example I-097]
80

Consider N#Cc1cc(F)cc(C2=NOC(C(=O)NC3C=CC(C(=O)O)C3)(C(F)(F)F)C2)c1 (mixture of isomers) . Its measured Herbicidal action against [%] POLCO is 90

COCCOC(=O)C1C=CC(NC(=O)C2(C)CC(c3cccc(C#N)c3)=NO2)C1 (mixture of isomers) has a reported Herbicidal action against [%] POLCO of 90

Form field Herbicidal action against [%] POLCO, entry Cc1cc(F)cc(C2=NOC(C(=O)NC3C=CC(C(=O)OCC(F)(F)F)C3)(C(F)(F)F)C2)c1 (mixture of isomers) : 100

Value of Herbicidal action against [%] POLCO reported for the molecule COC(=O)C(C)(C)NC(=O)C1C=CC(NC(=O)C2(C(F)(F)F)CC(c3cc(F)cc(F)c3)=NO2)C1 (mixture of isomers) is 90
